B1: TNXB (parent)
chain: FSEIRETSAKVNWMPPPSRADSFK

variants of: B1; assay: protein stability index of a GFP-peptide fusion (GPS, HEK-293T) (PSI 1-6); higher = more stable; conditions: c terminus: a fixed tail appended;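 further: lentivirally expressed fusions sorted by FACS into six bins by GFP to DsRed ratio, PSI derived from sequencing read proportions per bin multiplied by bin number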
measured quantity: protein stability index
Please respond with just the number, no unit label.

Consider the reported protein stability index for these variants:
>  <sequence text>
ISEIRETSAKVNWMPPPSRADSFK

>  <measured quantity>
protein stability index

>  <result>
3.46

$$$$
>  <sequence text>
FSEIRETSAKVNWMPPRSRADSFK

>  <measured quantity>
protein stability index

>  <result>
3.3

$$$$
>  <sequence text>
FSEIRCTSAKVNWMPPPSRADSFK

>  <measured quantity>
protein stability index

>  <result>
2.65

$$$$
>  <sequence text>
FSEIREYSAKVNWMPPPSRADSFK

>  <measured quantity>
protein stability index

>  <result>
2.25

$$$$
>  <sequence text>
FSEIRESSAKVNWMPPPSRADSFK

>  <measured quantity>
protein stability index

>  <result>
3.22

$$$$
>  <sequence text>
FSEIRETSPKVNWMPPPSRADSFK

>  <measured quantity>
protein stability index

>  <result>
3.33

$$$$

**Q:** Identify protein stability index associated with the variant `FSEIRETSAKPNWMPPPSRADSFK`
**A:** 4.03

**Q:** Identify protein stability index associated with the variant `FSEIRETSAKVNWMPPGSRADSFK`
**A:** 3.81

**Q:** Identify protein stability index associated with the variant `FSEIREPSAKVNWMPPPSRADSFK`
**A:** 3.64

**Q:** Identify protein stability index associated with the variant `FSEIREASAKVNWMPPPSRADSFK`
**A:** 3.23

**Q:** Identify protein stability index associated with the variant `FSEIRETSAHVNWMPPPSRADSFK`
**A:** 3.32

**Q:** Identify protein stability index associated with the variant `FSEIRETIAKVNWMPPPSRADSFK`
**A:** 2.73

**Q:** Identify protein stability index associated with the variant `FSEIRETSAKVNWMPPPSRRDSFK`
**A:** 3.61

**Q:** Identify protein stability index associated with the variant `FSEIRETSAKVNWMPPPKRADSFK`
**A:** 3.57

**Q:** Identify protein stability index associated with the variant `FSEIRETSAKVNWMSPPSRADSFK`
**A:** 3.15

**Q:** Identify protein stability index associated with the variant `FSEIRETSAKVYWMPPPSRADSFK`
**A:** 2.09

**Q:** Identify protein stability index associated with the variant `FSEIRETSAGVNWMPPPSRADSFK`
**A:** 3.28

**Q:** Identify protein stability index associated with the variant `FSEIRETSAKVNWMPVPSRADSFK`
**A:** 3.41
